# Tested on: OVCAR-5 ovarian
# assay explanation: NCI tumour cell line growth inhibition, 48 h
Task for the reader: assign each of the following molecules its reported TGI.

Return reported TGI; argument: `CSc1ccc(-c2cn3ccsc3n2)cc1`
> 100 µM

Entry `CCOC(=O)c1c(N2CCN(C)CC2)[nH]c(=O)c(C(c2c(Cl)cccc2Cl)c2c(O)c(C(=O)OCC)c(N3CCN(C)CC3)[nH]c2=O)c1O` please
> 100 µM

Entry CNC(=O)OC1/C(C)=C\C(C)C(O)C(OC)CC(C)CC2=C(OC)C(=O)C=C(C2=O)N(C)C(=O)/C(C)=C/C=C\C1OC (centres undefined) please
22.7 µM

Entry `CC(=O)[CH-]C(=O)c1ccccc1.CC(=O)[CH-]C(=O)c1ccccc1.Cl.[O-]CCc1ccccn1.[O-]CCc1ccccn1.[Ti+4]` please
> 100 µM

Entry `O=C1OCc2nc3c(c(-c4ccccc4C(F)(F)F)c21)C(=O)OC3` please
> 100 µM

Entry COC(=O)C(=O)C(C(=O)C(=O)Nc1cc(C)ccc1C)c1nc2ccccc2[nH]c1=O (centres undefined) please
> 100 µM

Entry Cc1cc2c3ccccc3n3c2c2c1OC1(C)CCC(C2C1)C3(C)C (centres undefined) please
> 25 µM

Entry `COc1cccc(NC(=O)/C(CS(=O)(=O)CCC(C(C)=O)C(C)=O)=N\NC(C)(C)C)c1` please
> 100 µM

Entry `Cc1cc2nc3c(N)nn(CCCN(C)C)c3nc2cc1C` please
> 100 µM
